system: IL-1β, human peripheral blood mononuclear cells (PBMC); experiment: PBMC cell assay: IL-1β assay with human PBMC or enriched adherent mononuclear cells, LPS-stimulated; format: cell-based; conditions: Homo sapiens, PBMC, * = values obtained upon reassay
I'd appreciate it if you could supply pIC50 values for the items below.
Give bare numbers, as −log10 of the molar value.

[[record]]
compound = "Nc1cc2ccccc2cc1C(=O)N[C@H]1CCC(=O)N2CCC[C@@H](C(=O)N[C@H](C=O)CC(=O)O)N2C1=O [Compound 440]"
reported_property = "pIC50"
recorded_number = 5.30

[[record]]
compound = "O=C[C@H](CC(=O)O)NC(=O)[C@@H]1CCCN2C(=O)CC[C@H](NC(=O)C3CC3)C(=O)N12 [Compound 413]"
reported_property = "pIC50"
recorded_number = 5.21

[[record]]
compound = "N#C[C@H](CC(=O)O)NC(=O)[C@@H]1CCCN2C(=O)CC[C@H](NC(=O)c3ccccc3)C(=O)N12 [Compound 232e]"
reported_property = "pIC50"
recorded_number = 5.35


Now let's try a different one.
For IL-1β, human peripheral blood mononuclear cells (PBMC), provide pIC50 of O=C[C@H](CC(=O)O)NC(=O)[C@@H]1CCCN2C(=O)CC[C@H](NC(=O)CCc3ccccc3)C(=O)N12 [Compound 47a] please.
5.59

* * *

tested on: IL-1β, human peripheral blood mononuclear cells (PBMC); assay: PBMC cell assay: IL-1β assay with human PBMC or enriched adherent mononuclear cells, LPS-stimulated; format: cell-based; details: Homo sapiens, PBMC, Table 17
reported property: pIC50
Numbers only, as −log10 of the molar value.

Some compounds with recorded pIC50:
[[record]]
compound = "CC(=O)N1C[C@H](NC(=O)c2cc(C)c(O)c(C)c2)C(=O)N(CC(=O)N[C@H](C=O)CC(=O)O)c2ccccc21 [Compound 671]"
measured_target = "IL-1β, human peripheral blood mononuclear cells (PBMC)"
reported_property = "pIC50"
recorded_number = 5.70

[[record]]
compound = "COCC(=O)N1C[C@H](NCc2ccc3ccccc3c2)C(=O)N(CC(=O)N[C@H](C=O)CC(=O)O)c2ccccc21 [Compound 640]"
measured_target = "IL-1β, human peripheral blood mononuclear cells (PBMC)"
reported_property = "pIC50"
recorded_number = 5.65

[[record]]
compound = "COc1ccccc1NC(=O)NN1CCC(=O)N2CCC[C@@H](C(=O)N[C@H](C=O)CC(=O)O)N2C1=O [Compound 265d]"
measured_target = "IL-1β, human peripheral blood mononuclear cells (PBMC)"
reported_property = "pIC50"
recorded_number = 5.82


Next compound, pIC50 to be filled in.
Lookup: pIC50 / IL-1β, human peripheral blood mononuclear cells (PBMC) / O=C[C@H](CC(=O)O)NC(=O)CN1C(=O)[C@@H](NC(=O)c2ccc(O)cc2)CN(C(=O)CO)c2ccccc21 [Compound 691b]
5.72

* * *

assay: In vivo rat clearance assay; settings: plasma, iv, 10-20 mg/kg
I'd be grateful if you could share measured log10(clearance) for these entries.
Base-10 log of clearance, unit mL/min/kg.

Some compounds with recorded log10(clearance):
[[record]]
compound = "COc1cc(C(=O)N[C@H]2CCC(=O)N3CCC[C@@H](C(=O)N[C@H](C=O)CC(=O)O)N3C2=O)cc(OC)c1OC"
recorded_number = 1.34

[[record]]
compound = "COC(=O)N[C@H]1CCC(=O)N2CCC[C@@H](C(=O)N[C@@H](CC(=O)O)C(=O)COC(=O)c3c(C)cccc3C)N2C1=O"
recorded_number = 1.70

[[record]]
compound = "O=C[C@H](CC(=O)O)NC(=O)[C@@H]1CCCN2C(=O)CC[C@H](NC(=O)c3ccc4c(c3)OCO4)C(=O)N12"
recorded_number = 1.26

[[record]]
compound = "O=C[C@H](CC(=O)O)NC(=O)[C@@H]1CCCN2C(=O)CC[C@H](NC(=O)c3nccc4ccccc34)C(=O)N12"
recorded_number = 1.40

[[record]]
compound = "O=C[C@H](CC(=O)O)NC(=O)[C@@H]1CCCN2C(=O)CC[C@H](NC(=O)c3ccsc3)C(=O)N12"
recorded_number = 1.30


I need log10(clearance) for every entry listed below, if you could help.
1. O=C[C@H](CC(=O)O)NC(=O)[C@@H]1CCCN2C(=O)CCN(NC(=O)c3ccc4c(c3)OCO4)C(=O)N12
2. O=C(O)C[C@H](NC(=O)[C@@H]1CCCN2C(=O)CC[C@H](NC(=O)c3ccccc3)C(=O)N12)C(=O)CSc1nnnn1-c1ccccc1
3. Cc1nc(C)c(C(=O)N[C@H]2CCC(=O)N3CCC[C@@H](C(=O)N[C@H](C=O)CC(=O)O)N3C2=O)s1
4. Nc1ccc(C(=O)N[C@H]2CCC(=O)N3CCC[C@@H](C(=O)N[C@H](C=O)CC(=O)O)N3C2=O)cc1Cl
5. COc1ccc(C(=O)N[C@H]2CCC(=O)N3CCC[C@@H](C(=O)N[C@H](C=O)CC(=O)O)N3C2=O)cc1
6. O=C[C@H](CC(=O)O)NC(=O)[C@@H]1CCCN2C(=O)CC[C@H](NC(=O)CCc3ccccc3)C(=O)N12 [Compound 47a]

1: 1.36; 2: 2.27; 3: 1.65; 4: 1.53; 5: 1.44; 6: 1.51
